# Assay procedure: chemical genetic growth profiling, strain panel (AID 1159580);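 also: tested at 20 µM; growth read once vehicle control cultures reached saturation at 30 °C; 1 = growth at the plate median or of vehicle wells; lower values mean less growth of the strain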
# Test settings: S. cerevisiae deletion strains, growth OD, locus YDL017W, strain CDC7, active compounds read low
Among all 5,500 compounds or so, about 2,000 (36%) were called active. Another 18% or so got no clear call; they are omitted. Some of the results follow.
// reported normalized growth per item
Property: normalized growth

Cc1nn(C)c(C(=O)Sc2ccc(OC(F)(F)F)cc2)c1[N+](=O)[O-] :: 0.977
N/C(Cn1ccc(C(F)(F)F)n1)=N/OS(=O)(=O)c1cccc(Cl)c1Cl :: 0.994
CC(C)(C)c1ccc(C(=N)SC(C(=O)C(F)(F)F)c2ccccc2)cc1 (stereo not drawn) :: 0.998
O=C(Nc1cccc(C(F)(F)F)c1)c1cncc(C#Cc2ccccc2)c1 :: 0.983
COc1cc(Cl)ccc1N/N=C(/C#N)C(N)=O :: 0.0952
COc1ccc(C(CC(=O)c2ccccc2)Sc2ccccc2N)cc1OC (stereo not drawn) :: 0.972
O=C(NCc1ccc(Cl)c(Cl)c1)c1cccnc1OCC(F)(F)F :: 0.955
CC(=O)c1ccc(Cl)c(NS(=O)(=O)c2cc(Cl)c(Cl)cc2Cl)c1 :: 0.925
C/C(Cc1nnn(-c2cc(C)on2)n1)=N/OC(=O)Nc1ccc(Cl)cc1 :: 0.974
O=C(Oc1cccc2[nH]ccc12)c1ccc(C(F)(F)F)cc1 :: 0.965
COc1cccc(C2CCN(C(=O)c3cccc4ccccc34)CC2)c1 :: 0.99
N#C/C(=N/Nc1ccc(F)cc1)S(=O)(=O)c1ccc(Cl)cc1 :: 0.972
Cc1cccc(NC(=S)N/N=C\c2ccc(F)cc2)c1 :: 0.958
Cc1ccc(S(=O)(=O)NC(=O)Nc2ccc(Sc3ccccc3)nc2Sc2ccccc2)cc1 :: 0.974
CCCN(CCC)C(=S)NC(=O)c1cccc([N+](=O)[O-])c1 :: 0.969
Oc1c(Cl)cc(Cl)cc1C=Nc1nc(-c2ccc3ccccc3c2)cs1 :: 0.958
Cc1cc(C(=O)NNS(=O)(=O)c2ccc(F)c(Cl)c2)nn1-c1c(Cl)cc(Cl)cc1Cl :: 0.985
Fc1cc(I)ccc1Nc1ccnc2cc(Cl)ccc12 :: 0.977
